Where do the numbers come from? From ChEMBL document CHEMBL5154799.

- Assay Remarks: Tmax in ICR mouse at 10 mg/kg, po single administration measured for 24 hrs post treatment by LC-MS/MS analysis
- Format: ADME, organism-based
- Conditions Used: in vivo
Assay Readout: Tmax (min)
Field: numeric (min). Do not append units.

Task: Name the reported Tmax value associated with the compound `C=C(c1cc(OC)c(OC)c(OC)c1)c1ccc(OC)c(O)c1NC(=O)CO`
Result: 15

====

- Assay Remarks: Selectivity ratio of IC50 for cytotoxicity against human L02 cells assessed as reduction in cell viability to IC50 for cytotoxicity against human A549 cells assessed as reduction in cell viability
- Format: toxicity, cell-based
- Conditions Used: L02 cells versus A549 cells
Assay Readout: selectivity ratio

Task: Quick one: selectivity ratio for `C=C(c1cc(OC)c(OC)c(OC)c1)c1ccc(OC)c(O)c1NC(=O)CO` ?
Result: 145
